B1: Cytosolic beta-glucosidase, O61594 (parent)
chain: MKLLVVLSLVAVACNASIVRQQRRFPDDFLFGTATASYQIEGAWDEDGKGENIWDYMVHNTPEVIRDLSNGDIAADSYHNYKRDVEMMRELGLDAYRFSLSWARILPTGMANEVNPAGIAFYNNYIDEMLKYNITPLITLYHWDLPQKLQELGGFANPLISDWFEDYARVVFENFGDRVKMFITFNEPREICFEGYGSATKAPILNATAMGAYLCAKNLVTAHAKAYYLYDREFRPVQGGQCGITISVNWFGPATPTPEDEMAAELRRQGEWGIYAHPIFSAEGGFPKELSDKIAEKSAQQGYPWSRLPEFTEEEKAFVRGTSDLIGVNHYTAFLVSATERKGPYPVPSLLDDVDTGSWADDSWLKSASAWLTLAPNSIHTALTHLNNLYNKPVFYITENGWSTDESRENSLIDDDRIQYYRASMESLLNCLDDGINLKGYMAWSLMDNFEWMEGYIERFGLYEVDFSDPARTRTPRKAAFVYKHIIKHRVVDYEYEPETMVMTIDEGH

# Variants of: B1
# STUDY CONDITIONS: Spodoptera frugiperda; pH 6; Thermal; Differential Scanning Fluorimetry; Potassium phosphate 10mM; transition: 2; structure 5CG0; whole UniProt chain shown
Kindly state Tm for each of the entries shown.
For clarity, give the value followed by its unit.

Example cases with answers are listed next.
MUTATION NAME	MEASURED PROPERTY	OBSERVED VALUE
M262F	Tm	45 °C
L335A	Tm	40 °C
D260A	Tm	40.8 °C
Y390A	Tm	45.1 °C

Could you report Tm for every entry in the following list?
1. L350A
2. N391A
3. S337F
4. S358A
5. L100A
6. F251A

1: 43.8 °C; 2: 46 °C; 3: 40.4 °C; 4: 42 °C; 5: 47.6 °C; 6: 42.4 °C

Could you report Tm for every entry in the following list?
1. F334A
2. K366A
3. Y420A

["42.5 °C", "41 °C", "37.2 °C"]

Could you report Tm for every entry in the following list?
1. N249A
2. E261A
3. L389A

1: 39 °C; 2: 46.2 °C; 3: 46.6 °C

Documented Tm of `V336F` : 34 °C

Origin of values: FireProtDB (doi:10.1111/febs.13659)
